Assay: Compound stability in rat liver microsomes
Format: in vitro ADME
Details: liver microsomes, pH 7.4; in vivo CLint extrapolated from rat liver microsome incubation
Quick rule for you: CLint scaled at 5 μM under 70 mL/min/kg gets class 1, anything else gets class 0.

Known results for compounds:
# compound, class
rows = [
    ("CC(C)(O)c1cn2ccc(Nc3ncc(Cl)c(NC4CCN(c5ccc(C#N)cn5)CC4)n3)cc2n1 [Example 70]", "class 0"),
    ("CN(C)C(=O)c1nc2cc(Nc3ncc(Cl)c(NC4CCN(c5ccc(C#N)nn5)CC4)n3)ccn2n1 [Example 85]", "class 0"),
    ("CC(O)Cn1cnc2ncc(Nc3ncc(Cl)c(NC4CCN(c5ccc(C#N)cn5)CC4)n3)cc21 (stereo not shown) [Example 51]", "class 0"),
]

Q) For this compound, is CLint scaled at 5 μM lower than 70 mL/min/kg? CCC1CN(c2ccc(C#N)cn2)CCC1Nc1nc(Nc2ccn3c(C(C)(C)O)nnc3c2)ncc1Cl (stereo not shown) [Example 41]
A) class 1

Q) For this compound, is CLint scaled at 5 μM lower than 70 mL/min/kg? CC(C)(O)Cc1nc2ccc(Nc3ncc(Cl)c(NC4CCN(c5ccc(C#N)cn5)CC4)n3)cn2n1 [Example 67]
A) class 0

Q) For this compound, is CLint scaled at 5 μM lower than 70 mL/min/kg? CC(C)(O)Cc1nc2ccc(Nc3ncc(Cl)c(NC4CCN(c5ccc(C#N)nn5)CC4)n3)cn2n1 [Example 79]
A) class 1

Q) For this compound, is CLint scaled at 5 μM lower than 70 mL/min/kg? CC(O)Cn1ccc2cc(Nc3ncc(Cl)c(NC4CCN(c5ccc(C#N)cn5)CC4)n3)cnc21 (stereo not shown) [Example 54]
A) class 0

// data source = patent US10683297B2
